All figures here come from patent US4873342A.

TARGET SYSTEM: prolyl endopeptidase (Elizabethkingia meningoseptica)
Sequence (P27028 21-705): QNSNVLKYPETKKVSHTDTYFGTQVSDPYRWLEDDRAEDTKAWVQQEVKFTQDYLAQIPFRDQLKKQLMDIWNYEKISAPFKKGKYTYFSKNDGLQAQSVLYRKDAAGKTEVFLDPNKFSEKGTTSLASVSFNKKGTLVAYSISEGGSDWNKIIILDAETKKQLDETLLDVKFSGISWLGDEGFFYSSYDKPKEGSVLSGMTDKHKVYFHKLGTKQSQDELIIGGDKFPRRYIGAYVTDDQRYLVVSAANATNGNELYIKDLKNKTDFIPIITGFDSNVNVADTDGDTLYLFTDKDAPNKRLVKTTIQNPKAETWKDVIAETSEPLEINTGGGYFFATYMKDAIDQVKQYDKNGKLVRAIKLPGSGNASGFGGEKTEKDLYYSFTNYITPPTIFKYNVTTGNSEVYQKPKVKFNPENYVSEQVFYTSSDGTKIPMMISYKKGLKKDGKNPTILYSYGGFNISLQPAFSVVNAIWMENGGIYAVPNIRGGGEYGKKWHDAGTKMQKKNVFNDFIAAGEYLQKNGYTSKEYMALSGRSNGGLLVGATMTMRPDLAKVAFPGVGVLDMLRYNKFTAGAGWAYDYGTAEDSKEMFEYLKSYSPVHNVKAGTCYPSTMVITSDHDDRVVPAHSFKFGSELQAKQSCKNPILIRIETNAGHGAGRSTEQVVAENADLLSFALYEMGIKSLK
TEST DETAILS: Measurement of anti-prolyl endopeptidase activity (decomposition of Z-glycyl-prolyl-β-naphthylamide)
Type: biochemical
SETTINGS: substrate Z-glycyl-proline-β-naphthylamide, phosphate buffer pH 7.0
Peptide text beside a SMILES is read from it. * marks the point of attachment. PhAc = O=C(Cc1ccccc1)*
OBSERVED PROPERTY: IC50 (amount needed to achieve 50% inhibition of prolyl endopeptidase) (ng/test tube)

- COMPOUND: "CSCC[C@H](NC(=O)CCCc1ccccc1)C(=O)N1CCC[C@H]1C=O"
  REPORTED RESULT: 0.7
- COMPOUND: "CCCCC(NC(=O)CCCc1ccccc1)C(=O)N1CCCC1C=O (stereo not drawn)"
  REPORTED RESULT: 0.4
- COMPOUND: "O=C[C@@H]1CCCN1C(=O)[C@@H]1CCCN1C(=O)Cc1ccccc1 [SUAM 1336, N--(2-phenyl)acetyl--Pro--Pro--CHO] (PhAc-Pro-Pro-aldehyde)"
  REPORTED RESULT: 1.0
